# system: T1, hNPR1-mFc:hANP or hNPR1-hFc:hANP complex (human, UniProt P01160 124-151)
# T1 construct: also called human NPR1 complexed to ANP
# measurement.protocol: SPR, mAb captured, 25C
Listed binders paired with reported 100 nM Ag Bound (RU)
Quick reminder: number only, in RU, skip the unit.

[[record]]
binder = "mAb22809 (antibody, human IgG4, V domains shown) VH: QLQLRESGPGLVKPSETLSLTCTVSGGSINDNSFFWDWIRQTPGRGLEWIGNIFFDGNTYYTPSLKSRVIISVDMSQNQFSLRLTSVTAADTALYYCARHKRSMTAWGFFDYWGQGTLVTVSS VL: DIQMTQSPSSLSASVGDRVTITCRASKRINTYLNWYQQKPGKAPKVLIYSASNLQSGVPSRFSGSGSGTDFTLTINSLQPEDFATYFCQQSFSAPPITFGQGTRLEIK"
value_observed = 53


Input line: 100 nM Ag Bound (RU) lookup needed for mAb22805 (antibody, human IgG4, V domains shown) VH: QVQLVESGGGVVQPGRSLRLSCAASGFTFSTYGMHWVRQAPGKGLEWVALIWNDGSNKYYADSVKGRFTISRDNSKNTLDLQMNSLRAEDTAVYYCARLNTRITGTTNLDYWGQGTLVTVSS VL: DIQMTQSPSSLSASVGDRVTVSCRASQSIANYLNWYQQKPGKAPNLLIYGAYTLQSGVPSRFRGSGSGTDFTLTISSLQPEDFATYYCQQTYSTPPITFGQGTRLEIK , thanks.
Output line: 84
